System: P388 leukemia ip, CD2F1 mice, survival T/C
Assay: NCI In Vivo Anticancer Drug Screen. Data for tumor model P388 Leukemia (intraperitoneal) in CD2F1 (CDF1) mice
Settings: endpoint: median survival time; dose: 120.0 mg/kg/injection; schedule: Q01DX005 (ip); vehicle: saline with Tween-80; higher = longer survival
Inconclusive results and toxic doses are left out.
MEASURED_PARAMETER: T/C

Would you please look over these solved cases?
Given the entry CCc1nc(N)nc(N)c1-c1ccc(NCCCCCCCCCCCCN)c([N+](=O)[O-])c1 , report its measured T/C.
91 % of control

Try this compound next: c1ccc(-c2cc(Nc3ccc4c(c3)OCO4)c3cc(C4CCCCC4)ccc3n2)cc1
93 % of control

Try this compound too: COc1cc(C2c3c(oc4ccccc4c3=O)Oc3oc4ccccc4c(=O)c32)cc(OC)c1OC
87 % of control

Please answer likewise for CC1(C)C2CCC(C2)C1OC(=O)c1ccccc1C(=O)O (centres undefined)
98 % of control

Another compound to look at: CC(C)=CN=Cc1nc(Cc2ccccc2)oc1O
96 % of control

Now consider COCc1ccnn1-c1ccccc1C and answer again.
97 % of control

Look at each compound and report its T/C.
1. CSc1nc(NC2OCC(O)C(O)C2O)c(Cl)c(=O)n1C (centres undefined)
2. Cc1cc2cc3c(c(C(=O)O)c2o1)C(=O)c1ccccc1C3
3. C[C@@H]1CC=C[C@@H](NC(=O)OCc2ccccc2)[C@H]1C=O
4. COC1=CC2CC(C#N)C2(OC)C=C1 (centres undefined)

1: 104 % of control; 2: 111 % of control; 3: 99 % of control; 4: 99 % of control
